assay: basal RPMI8226 mitochondrial membrane potential changes, profiling panel, cell-based, JC-1 fluorescence, 24 h, 100 nL compound (AID 1169); details: RPMI8226 myeloma, JC-1 mitochondrial potential fluorescence, higher = more signal; further: test concentration not given here

Compound | z-score
C=CCC(OC(C)=O)[C@@H]1[C@@H](N(Cc2ccc(-c3cccc(C(F)(F)F)c3)o2)C(=O)Cc2ccc(F)cc2)c2cc(OCCCO)ccc2N1C(=O)c1ccc2ccccc2n1 (some centres undefined) | -0.134
NC(=O)N1C(=O)C2C(C1=O)C1C=C(CCCO)C2C(c2ccc(CN3CCCC3)cc2)N1Cc1cccc(OC(F)(F)F)c1 (centres undefined) | 0.708
CCCCN1CC=CC23O[C@@H]4/C=C\CCC(C)OC(=O)C4[C@H]2C(=O)N(C(C)CO)[C@@H]3C1=O (some centres undefined) | -0.726
C=CCC(OC(C)=O)[C@@H]1[C@@H](N(Cc2ccc(-c3cccc(C(F)(F)F)c3)o2)C(=O)Cc2ccc(OC)cc2)c2cc(OCCCO)ccc2N1C(=O)c1ccc2ccccc2n1 (some centres undefined) | -0.616

----------
test: small-molecule microarray binders of probe aLefty2, primary screen, biochemical, biotinylated probe, 635/667 nm fluorescence (AID 1094); conditions: higher = more signal;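 further: score merges spot fluorescence near 667 nm with spot signal-to-noise ratio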
composite z-score for assorted molecules

Molecule | composite z-score
CC(C)(C)OC(=O)CC[C@]1(C(N)=O)N=C(c2ccc(OCCCO)cc2)O[C@H]1c1ccccc1CN=[N+]=[N-] | 0.314
COCC(=C=CC[C@@H](O)c1cccc(OCCO)c1)C[C@@H](O)COCc1ccccc1 | 0.217
C=CCC(OC(C)=O)[C@@H]1[C@@H](N(Cc2ccc(-c3cccc(C(F)(F)F)c3)o2)C(=O)Cc2ccc(F)cc2)c2cc(OCCCO)ccc2N1C(=O)c1ccc2ccccc2n1 (some centres not stated) | -0.0415
CCCC[C@@H]1C[C@H]1[C@@H](NC(=O)c1ccc(C(F)(F)F)cc1)c1ccc(C(=O)OC)cc1 | 0.293
C=C(CC1([C@@H](NP(=O)(c2ccccc2)c2ccccc2)[C@H]2C[C@@H]2CCN(C(=O)OCC)S(=O)(=O)c2ccc(C)cc2)CC1)c1ccccc1 | 0.502
COc1ccc(CCNC(=O)[C@@]2(Sc3ccc(C)cc3)CC(=O)N(C(C)C)[C@@H]2c2ccc(CO)cc2)cc1 | 0.0507
CCCCC(=C=CC[C@H](O)c1ccc(OCCO)cc1)C[C@H](O)c1ccccn1 | -0.0094

----------
target: Epidermal growth factor receptor (Homo sapiens) (UniProt P00533); assay: EGFR binders on small-molecule microarrays, primary screen, biochemical, small-molecule microarray, 635 nm fluorescence (AID 1104); conditions: EGFR binding, higher = more signal;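 further: score merges 667 nm emission intensity with spot signal to noise over triplicate slides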
Sequence (P00533 whole entry, looked up): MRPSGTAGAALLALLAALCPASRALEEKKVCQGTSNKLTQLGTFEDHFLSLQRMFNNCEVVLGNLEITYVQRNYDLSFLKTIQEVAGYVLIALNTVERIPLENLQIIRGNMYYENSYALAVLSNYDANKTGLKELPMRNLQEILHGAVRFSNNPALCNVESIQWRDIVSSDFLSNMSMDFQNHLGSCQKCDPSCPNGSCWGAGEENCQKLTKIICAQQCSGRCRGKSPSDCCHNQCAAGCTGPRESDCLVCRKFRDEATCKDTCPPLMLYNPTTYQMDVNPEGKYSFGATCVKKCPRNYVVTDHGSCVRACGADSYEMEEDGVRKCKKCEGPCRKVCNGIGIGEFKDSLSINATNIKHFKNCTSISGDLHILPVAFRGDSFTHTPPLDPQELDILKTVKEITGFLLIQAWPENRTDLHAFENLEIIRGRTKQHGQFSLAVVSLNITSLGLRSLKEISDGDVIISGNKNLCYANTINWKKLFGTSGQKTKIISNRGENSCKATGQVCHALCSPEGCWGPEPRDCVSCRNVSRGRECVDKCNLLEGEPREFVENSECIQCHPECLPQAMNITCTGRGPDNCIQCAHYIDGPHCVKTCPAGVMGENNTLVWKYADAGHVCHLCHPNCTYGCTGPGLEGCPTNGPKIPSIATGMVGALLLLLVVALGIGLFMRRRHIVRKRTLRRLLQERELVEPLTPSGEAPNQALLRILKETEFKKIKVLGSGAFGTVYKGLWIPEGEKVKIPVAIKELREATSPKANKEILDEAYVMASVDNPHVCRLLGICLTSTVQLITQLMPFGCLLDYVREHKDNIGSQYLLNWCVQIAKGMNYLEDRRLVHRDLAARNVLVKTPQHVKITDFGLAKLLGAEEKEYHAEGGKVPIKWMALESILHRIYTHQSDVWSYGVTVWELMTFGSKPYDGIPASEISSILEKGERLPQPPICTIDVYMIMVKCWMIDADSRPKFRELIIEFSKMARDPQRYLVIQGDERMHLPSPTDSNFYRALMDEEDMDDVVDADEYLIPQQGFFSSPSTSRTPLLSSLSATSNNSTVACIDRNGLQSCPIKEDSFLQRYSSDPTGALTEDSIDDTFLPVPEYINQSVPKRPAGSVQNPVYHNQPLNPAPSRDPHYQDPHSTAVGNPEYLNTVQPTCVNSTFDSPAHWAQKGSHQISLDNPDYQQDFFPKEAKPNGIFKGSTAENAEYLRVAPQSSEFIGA

Molecule | Assay Target | composite z-score
CO[C@H]1O[C@H](CO)[C@@H](OC(=O)Nc2ccc(C(F)(F)F)cc2)[C@H](OC(=O)Nc2ccccc2-c2ccccc2)[C@@H]1OC(=O)Nc1ccccc1-c1ccccc1 | Epidermal growth factor receptor (Homo sapiens) (UniProt P00533) | 0.35
COC(=O)[C@@]1(Cc2ccc(F)cc2)[C@H]2c3cc(C(=O)N(C)C)n(CCN4CCOCC4)c3C[C@H]2CN1C(=O)c1ccccc1 | Epidermal growth factor receptor (Homo sapiens) (UniProt P00533) | 0.045
COc1ccc(NN2C(C(O)c3ccc(OC)cc3)C=CC3C(=O)N(C4CCCCC4)C(=O)C32)cc1 (centres undefined) | Epidermal growth factor receptor (Homo sapiens) (UniProt P00533) | 0.556
O=C1NC(=O)C2C1C=CC(C(O)c1ccc(F)cc1)N2Nc1ccccn1 (centres undefined) | Epidermal growth factor receptor (Homo sapiens) (UniProt P00533) | 0.255
CN(C)C(=O)[C@@]1(CCS(=O)(=O)c2ccccc2)N=C(c2ccc(OCCCO)cc2)O[C@H]1c1ccccc1N=[N+]=[N-] | Epidermal growth factor receptor (Homo sapiens) (UniProt P00533) | 0.193
O=C1C2C=CC(C(O)c3ccc([N+](=O)[O-])cc3)N(Nc3ccccc3)C2C(=O)N1c1ccccc1 (centres undefined) | Epidermal growth factor receptor (Homo sapiens) (UniProt P00533) | -0.0215
COCCOC(=O)N1C(=O)[C@@]2(c3cc(C#CCC(C(=O)OC)C(=O)OC)ccc31)[C@H](C(=O)N1CCCCCCC1)[C@H]1C(=O)O[C@H](c3ccccc3)[C@H](c3ccccc3)N1[C@@H]2c1ccccc1OCCO | Epidermal growth factor receptor (Homo sapiens) (UniProt P00533) | 0.893
CN(C)CCCCNC(=O)[C@H]1C[C@H]2C(=O)NCC(=O)N2[C@H]1c1cccc(OCCO)c1 | Epidermal growth factor receptor (Homo sapiens) (UniProt P00533) | 0.138
CC1CC/C=C\[C@H]2OC34C=CCN(CCN5CCOCC5)C(=O)[C@H]3N(CCCCCCO)C(=O)[C@@H]4C2C(=O)O1 (some centres undefined) | Epidermal growth factor receptor (Homo sapiens) (UniProt P00533) | -1
C=CCN1C(=O)[C@]2(O[C@H](CCO)[C@@H]([Si](C)(C)c3ccc(OC)cc3)[C@@H]2C)c2ccccc21 | Epidermal growth factor receptor (Homo sapiens) (UniProt P00533) | -0.66
C=CCC(OC(C)=O)[C@@H]1[C@@H](N(Cc2cccc3ccccc23)C(=O)c2ccc(C)cc2)c2cc(OCCCO)ccc2N1C(=O)c1ccc2ccccc2n1 (some centres undefined) | Epidermal growth factor receptor (Homo sapiens) (UniProt P00533) | 0.386
COCCOC(=O)N1C(=O)[C@@]2(c3cc(C#CC4=CCCCC4)ccc31)[C@H](c1ccccc1OCCO)N1[C@H](c3ccccc3)[C@H](c3ccccc3)OC(=O)[C@H]1[C@@H]2C(N)=O | Epidermal growth factor receptor (Homo sapiens) (UniProt P00533) | 0.766
COC(=O)Cn1c(C(=O)N(C)C)cc2c1C[C@H]1CN(C(=O)c3ccccc3)[C@@](Cc3ccc(OC)cc3)(C(=O)OC)[C@@H]21 | Epidermal growth factor receptor (Homo sapiens) (UniProt P00533) | 0.0287
CN1C(=O)C2C=CC(C(O)c3ccc(-c4ccccc4)s3)N(Nc3ccccc3)C2C1=O (centres undefined) | Epidermal growth factor receptor (Homo sapiens) (UniProt P00533) | 0.138
CO[C@H]1O[C@H](CO)[C@@H](OC(=O)Nc2ccccc2)[C@@H]2OC(=O)[C@H](Cc3ccccc3)C/C=C/C[C@@H](Cc3ccccc3)C(=O)O[C@@H]12 | Epidermal growth factor receptor (Homo sapiens) (UniProt P00533) | 0.0366
CCCCC(=C=CC[C@@H](O)c1cccc(OCCO)c1)CCO | Epidermal growth factor receptor (Homo sapiens) (UniProt P00533) | -0.556
CC(C)C[C@H]1NC(=O)[C@@H](C)NC(=O)[C@@]23C(=O)N[C@@H](Cc4ccccc4)C2[C@H](C)[C@@]2(C)O[C@H]2C3/C=C/C/C=C\CNC1=O (some centres undefined) | Epidermal growth factor receptor (Homo sapiens) (UniProt P00533) | 0.634
CC(C)C(=C=CC[C@@H](O)c1ccccc1OCCO)C[C@@H](O)c1cc(Cl)cc(Cl)c1O | Epidermal growth factor receptor (Homo sapiens) (UniProt P00533) | 0.472
O=C(NCC(F)(F)F)[C@@H]1c2ccccc2C(=O)N(CC23CC4CC(CC(C4)C2)C3)[C@H]1c1ccc(CO)cc1 | Epidermal growth factor receptor (Homo sapiens) (UniProt P00533) | 0.169
COC(=O)[C@@]1(Cc2ccc(F)cc2)[C@H]2c3cc(C(=O)N4CCCC4)n(CCO)c3C[C@H]2CN1C(=O)c1ccccc1 | Epidermal growth factor receptor (Homo sapiens) (UniProt P00533) | -0.244
Cc1ccc(F)cc1S(=O)(=O)N[C@@H]1CCN(Cc2ccc3c(c2)OCO3)C1 | Epidermal growth factor receptor (Homo sapiens) (UniProt P00533) | 0.0122
CCCC[C@@H](O)C1=C(COC)Cn2c(=O)n(-c3ccccc3)c(=O)n2[C@H]1CO | Epidermal growth factor receptor (Homo sapiens) (UniProt P00533) | -0.464
O=C1N(CCS(=O)(=O)c2ccccc2)c2ccccc2[C@@H]2OC(c3ccc(OCCCO)cc3)=N[C@]12CCS(=O)(=O)c1ccccc1 | Epidermal growth factor receptor (Homo sapiens) (UniProt P00533) | 0.917
[N-]=[N+]=NCc1ccccc1[C@@H]1OC(c2ccc(OCCCO)cc2)=N[C@]1(Cc1ccccc1)C(=O)NCc1ccccc1 | Epidermal growth factor receptor (Homo sapiens) (UniProt P00533) | 0.131
CCOC(=O)C1=CC[C@@H](c2ccc(F)cc2)N(S(=O)(=O)c2ccc(C)cc2)[C@H]1c1ccc([N+](=O)[O-])cc1 | Epidermal growth factor receptor (Homo sapiens) (UniProt P00533) | -0.24
C=C(COC)/C(=C/C[C@@H](OC(C)=O)c1ccccc1OCCO)c1cc(C(=O)OC)ccc1OC | Epidermal growth factor receptor (Homo sapiens) (UniProt P00533) | -0.676
CC1(C)OC[C@@]23C=C(Br)[C@@H](C[C@H]12)[C@@]1(CO1)C3=O | Epidermal growth factor receptor (Homo sapiens) (UniProt P00533) | 0.376
[N-]=[N+]=NCc1ccccc1C[C@@]1(C(=O)O)N=C(c2ccc(OCCCO)cc2)O[C@@H]1c1ccccc1CN=[N+]=[N-] | Epidermal growth factor receptor (Homo sapiens) (UniProt P00533) | -0.227
CC(C)(C)OC(=O)CC[C@]1(C(N)=O)N=C(c2ccc(OCCCO)cc2)O[C@H]1c1ccccc1CN=[N+]=[N-] | Epidermal growth factor receptor (Homo sapiens) (UniProt P00533) | -0.643
